Molecular target: c-Src SH2;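 further: peptide library displayed on the E. coli surface as eCPX fusions, selected cells deep-sequenced, score is each peptide's frequency after selection divided by its frequency in the input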
Test: SH2 binding enrichment of the phosphorylated peptide, bacterial display (enrichment ratio); higher = better substrate or ligand; peptides without Tyr show the background
Property name: SH2 binding enrichment

Previously resolved entries follow.
>>> quantitative_readout("EVTQDYGLDPK [FH_Y110_N107T]")
0.461
>>> quantitative_readout("AALRLYHVSDS [VIL1_Y256_K254R]")
0.593
>>> quantitative_readout("DEYLEYRRIVG [FAM221A_Y20]")
0.547
>>> quantitative_readout("DLSEVYKPCRK [CCDC93_Y176_R179C]")
0.528
>>> quantitative_readout("RYVSRYIYNRE [HLA-DQB1_Y62_T60S]")
0.368
>>> quantitative_readout("LLKMMYLMLDN [STAT1_Y203_K201M]")
1.44
>>> quantitative_readout("TWSSSYRSDRL [CRYBB1_Y131]")
0.473
>>> quantitative_readout("GMTRNYIIFIE [BCO2_Y294]")
1.18

(I) NFDRIYIYHLR [MYOF_Y1137_V1136I]
(II) FTRNFYVRAVL [CYBA_Y88_YF]
Returns: the argument ( I or II ) having the larger SH2 binding enrichment. Identify your pick by its label.
I
(I: 1.03, II: 0.448)

====

Listed here are sequences together with their documented phosphorylation enrichment.
System: Fer (mouse)
Assay: phosphorylation enrichment, bacterial display (enrichment ratio); higher = better substrate or ligand; peptides without Tyr show the background
Answer with a bare number; do not write a unit.

>>> quantitative_readout("LNLDTYQKRLR [PLA2G2D_Y126_R121L]")
0.336
>>> quantitative_readout("QEGPEYWDRET [HLA-A_Y83_Q86R]")
0.92
>>> quantitative_readout("LEISPYMLSGR [LRRK2_Y1718]")
0.806
>>> quantitative_readout("NVKGIYAVGDV [GSR_Y371]")
0.572
>>> quantitative_readout("LLREWYMIISR [HUWE1_Y4066]")
0.723
>>> quantitative_readout("LAAAGYDVEKN [H1-3_Y72]")
0.436
>>> quantitative_readout("NSIGNYYKPWF [DHCR24_Y299]")
0.52
>>> quantitative_readout("CTTIHYMYMCN [TP53_Y234_N235M]")
0.556

Now take the following sequence into account.
Lab book: phosphorylation enrichment of MGSYNYLGFAR [SPTLC2_Y178] noted as 0.707

====

Target: Fyn (UniProt P06241)
Sequence (P06241 whole entry, looked up): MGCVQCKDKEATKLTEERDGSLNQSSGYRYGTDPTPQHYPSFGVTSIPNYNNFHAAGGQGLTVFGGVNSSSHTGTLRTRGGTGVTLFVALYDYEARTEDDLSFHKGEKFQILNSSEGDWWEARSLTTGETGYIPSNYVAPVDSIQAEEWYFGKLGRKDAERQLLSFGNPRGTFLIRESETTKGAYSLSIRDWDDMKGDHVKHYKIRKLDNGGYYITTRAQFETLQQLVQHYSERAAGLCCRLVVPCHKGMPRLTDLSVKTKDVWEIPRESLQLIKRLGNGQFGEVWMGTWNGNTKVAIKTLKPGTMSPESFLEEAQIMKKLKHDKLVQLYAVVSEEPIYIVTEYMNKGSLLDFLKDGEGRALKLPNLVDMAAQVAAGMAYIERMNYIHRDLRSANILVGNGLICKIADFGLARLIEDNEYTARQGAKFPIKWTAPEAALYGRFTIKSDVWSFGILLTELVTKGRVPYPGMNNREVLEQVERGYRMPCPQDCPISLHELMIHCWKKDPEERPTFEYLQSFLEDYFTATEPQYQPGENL
Assay: phosphorylation enrichment, bacterial display (enrichment ratio); higher = better substrate or ligand; peptides without Tyr show the background
Property name: phosphorylation enrichment
Answer with a bare number; do not write a unit.

Previously resolved entries follow.
>>> quantitative_readout("EPYELYCEMGS [CBL_Y371_Q367P]")
4.13
>>> quantitative_readout("SEEVNYATLTF [CLEC12B_Y7_T6N]")
1.33
>>> quantitative_readout("IFSGIYFKPES [L2HGDH_Y102_H98Y_YF]")
2.7

Lab book: phosphorylation enrichment of IQKKYYRAILE [CHD7_Y1218] noted as 0.407

Lab book: phosphorylation enrichment of VEGISYDFIPT [CBS_Y308_G307S] noted as 0.529

Lab book: phosphorylation enrichment of ISSLCYELLEE [TRPC6_Y896_R895C] noted as 0.597

Lab book: phosphorylation enrichment of GYKVRYATWSI [FGFR1_Y210] noted as 0.54

The measurements presented in this section are drawn from the supplement of paper PMC10065799.
